Assay: melting temperature; fluorescence melt of hairpins on a sequencing array, two-state fit, raised by 9.35 °C to match UV melts
Details: sodium 0.088 M

>  <sequenceCode>
GGCACCGAAAGGTAGCC ((((((....))).)))

>  <unitsOfMeasure>
°C

>  <Tm>
61.4

$$$$
>  <sequenceCode>
GGTTCCGAAAGGAGCACC ((((((....)))..)))

>  <unitsOfMeasure>
°C

>  <Tm>
39.1

$$$$
>  <sequenceCode>
GATGATGGAAACATCGTC ((.((((....)))).))

>  <unitsOfMeasure>
°C

>  <Tm>
47.4

$$$$
>  <sequenceCode>
GCGCTAGGAAACTGGTGC ((.(.((....)).).))

>  <unitsOfMeasure>
°C

>  <Tm>
44.3

$$$$
>  <sequenceCode>
GGATCTCGAAAGAGTCC (((.(((....))))))

>  <unitsOfMeasure>
°C

>  <Tm>
49.3

$$$$
>  <sequenceCode>
GCAAGGCGAAAGCTCTGC (((..((....))..)))

>  <unitsOfMeasure>
°C

>  <Tm>
43.7

$$$$
>  <sequenceCode>
GATCCCTTTAGGGATC ((((((....))))))

>  <unitsOfMeasure>
°C

>  <Tm>
68.9

$$$$
>  <sequenceCode>
GGCGTAGGAAACTATGCC (((.(((....))).)))

>  <unitsOfMeasure>
°C

>  <Tm>
53.5

$$$$
>  <sequenceCode>
GACCACGAAAGTGTTGTC ((((((....)))..)))

>  <unitsOfMeasure>
°C

>  <Tm>
34.4

$$$$
>  <sequenceCode>
GACTGTGAAAACAGTC ((((((....))))))

>  <unitsOfMeasure>
°C

>  <Tm>
58.5

$$$$
>  <sequenceCode>
GATGCCGGAAACGGTGTC ((..(((....)))..))

>  <unitsOfMeasure>
°C

>  <Tm>
47.8

$$$$
>  <sequenceCode>
GCTGACGAAAGTCAAAGC ((((((....)))..)))

>  <unitsOfMeasure>
°C

>  <Tm>
48.7

$$$$
>  <sequenceCode>
GAACCAGGAAACTGGCTC ((.((((....)))).))

>  <unitsOfMeasure>
°C

>  <Tm>
39.6

$$$$
>  <sequenceCode>
GATCGTGGAAACATGGTC ((.(.((....)).).))

>  <unitsOfMeasure>
°C

>  <Tm>
32.7

$$$$
>  <sequenceCode>
GGCAAACGAAAGTTGCC (((.(((....))))))

>  <unitsOfMeasure>
°C

>  <Tm>
59.6

$$$$
>  <sequenceCode>
GATCTCAGCGAGATC ((((((...))))))

>  <unitsOfMeasure>
°C

>  <Tm>
56.6

$$$$
>  <sequenceCode>
GATCGGTACGCCGATC ((((((....))))))

>  <unitsOfMeasure>
°C

>  <Tm>
63.6

$$$$
>  <sequenceCode>
GGAATCGAAAGATCTCC ((((((....))).)))

>  <unitsOfMeasure>
°C

>  <Tm>
30.8

$$$$
>  <sequenceCode>
GCCGCCGAAAGGCGTGGC ((((((....)))..)))

>  <unitsOfMeasure>
°C

>  <Tm>
60.1

$$$$
>  <sequenceCode>
GCCGACGAAAGTCAGGGC ((((((....)))..)))

>  <unitsOfMeasure>
°C

>  <Tm>
55.1

$$$$
>  <sequenceCode>
GCGGCGCGAAAGCGAGGC ((..(((....)))..))

>  <unitsOfMeasure>
°C

>  <Tm>
63.9

$$$$
>  <sequenceCode>
GTGACAGGAAACTGTTGC (..((((....))))..)

>  <unitsOfMeasure>
°C

>  <Tm>
37.3

$$$$
>  <sequenceCode>
GATCCGACAACGGATC ((((((....))))))

>  <unitsOfMeasure>
°C

>  <Tm>
57

$$$$
>  <sequenceCode>
GCTTGGCGAAAGCCCTGC ((..(((....)))..))

>  <unitsOfMeasure>
°C

>  <Tm>
40.2

$$$$
>  <sequenceCode>
GATCCATCCTGGATC ((((((...))))))

>  <unitsOfMeasure>
°C

>  <Tm>
52.7

$$$$
>  <sequenceCode>
GTCGATGGAAACATTGGC (.(.(((....))).).)

>  <unitsOfMeasure>
°C

>  <Tm>
35.1

$$$$
>  <sequenceCode>
GATCTTAATCAAGATC ((((((....))))))

>  <unitsOfMeasure>
°C

>  <Tm>
38.6

$$$$
>  <sequenceCode>
GTCTTTCGAAAGAAGGAC (((.(((....))).)))

>  <unitsOfMeasure>
°C

>  <Tm>
47.4

$$$$
>  <sequenceCode>
GTGGTTGGAAACGACTAC ((.((.(....).)).))

>  <unitsOfMeasure>
°C

>  <Tm>
41.8

$$$$
>  <sequenceCode>
GACGCAACGAAAGTTGTC (((..(((....))))))

>  <unitsOfMeasure>
°C

>  <Tm>
34.1

$$$$
>  <sequenceCode>
ACCAAGAAATTGGT (((((....)))))

>  <unitsOfMeasure>
°C

>  <Tm>
37.5

$$$$
>  <sequenceCode>
GTCTCTGGAAACAGGGAC (((.(((....))).)))

>  <unitsOfMeasure>
°C

>  <Tm>
48.9

$$$$
>  <sequenceCode>
GCGGATCCGAAAGGACGC (((..(((....))))))

>  <unitsOfMeasure>
°C

>  <Tm>
53.3

$$$$
>  <sequenceCode>
GGGCGAGGAAACCCGCCC (((((.(....).)))))

>  <unitsOfMeasure>
°C

>  <Tm>
64.5

$$$$
>  <sequenceCode>
GATTCCCGAAAGGGCATC (((.(((....))).)))

>  <unitsOfMeasure>
°C

>  <Tm>
41.5

$$$$
>  <sequenceCode>
GCGCTCCGAAAGGAACGC (((.(((....))).)))

>  <unitsOfMeasure>
°C

>  <Tm>
65

$$$$
>  <sequenceCode>
GATCTGTGTACAGATC ((((((....))))))

>  <unitsOfMeasure>
°C

>  <Tm>
56

$$$$
>  <sequenceCode>
GATCATAGGAATGATC ((((((....))))))

>  <unitsOfMeasure>
°C

>  <Tm>
44.3

$$$$
>  <sequenceCode>
GGCGTAGGAAACCACGCC (((((.(....).)))))

>  <unitsOfMeasure>
°C

>  <Tm>
56.2

$$$$
>  <sequenceCode>
CGCGGATAACTCCGCG ((((((....))))))

>  <unitsOfMeasure>
°C

>  <Tm>
62.2

$$$$
>  <sequenceCode>
GTGAGCCGAAAGGCCCAC (((.(((....))).)))

>  <unitsOfMeasure>
°C

>  <Tm>
55.3

$$$$
>  <sequenceCode>
GCGTTTGCACGC ((((....))))

>  <unitsOfMeasure>
°C

>  <Tm>
54.3

$$$$
>  <sequenceCode>
GAGGAAGAAATTCCTC ((((((....))))))

>  <unitsOfMeasure>
°C

>  <Tm>
47.7

$$$$
>  <sequenceCode>
GATCTTTAGAAGATC ((((((...))))))

>  <unitsOfMeasure>
°C

>  <Tm>
38.7

$$$$
>  <sequenceCode>
GATCACCTTGGTGATC ((((((....))))))

>  <unitsOfMeasure>
°C

>  <Tm>
67

$$$$
>  <sequenceCode>
GCTCACCGAAAGGTAGC (((.(((....))))))

>  <unitsOfMeasure>
°C

>  <Tm>
50.2

$$$$
>  <sequenceCode>
GGCGTCGAAAGACTTGCC ((((((....)))..)))

>  <unitsOfMeasure>
°C

>  <Tm>
48.9

$$$$
